Reference source for all entries: paper PMC10247784

# Assay System: mouse Tas2r108 (Mus musculus, UniProt Q9JKT3)
# Construct: expressed in transfected cells; host or cells: HEK293T-Gα16gust44
# Sequence (Q9JKT3 1-297): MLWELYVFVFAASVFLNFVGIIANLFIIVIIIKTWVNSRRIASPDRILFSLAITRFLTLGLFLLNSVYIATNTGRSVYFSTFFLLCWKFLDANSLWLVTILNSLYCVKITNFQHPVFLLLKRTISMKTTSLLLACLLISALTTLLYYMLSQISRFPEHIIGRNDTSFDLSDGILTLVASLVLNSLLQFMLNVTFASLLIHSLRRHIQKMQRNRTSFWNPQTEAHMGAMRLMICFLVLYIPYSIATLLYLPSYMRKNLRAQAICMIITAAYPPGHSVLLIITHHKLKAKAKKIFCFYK
# Assay Explanation: Calcium imaging assay (FLIPR), HEK293T-Gα16gust44 cells transfected with mouse Tas2r108
# Type: cell-based
# Experimental Setup: Time 179.562 s

Smiles Notation	RLU, RLU
C[C@H](CCC(=O)NCC(=O)O)[C@H]1CC[C@H]2[C@@H]3[C@H](O)C[C@@H]4C[C@H](O)CC[C@]4(C)[C@H]3C[C@H](O)[C@]12C	174.25
C[C@H](CCC(=O)O)[C@H]1CC[C@H]2[C@@H]3[C@H](O)C[C@@H]4C[C@H](O)CC[C@]4(C)[C@H]3C[C@H](O)[C@]12C	175.807
C[C@H](CCC(=O)NCCS(=O)(=O)O)[C@H]1CC[C@H]2[C@@H]3[C@H](O)C[C@@H]4C[C@H](O)CC[C@]4(C)[C@H]3C[C@H](O)[C@]12C	239.06
C[C@H](CCC(=O)O)[C@H]1CC[C@H]2[C@@H]3CC[C@@H]4C[C@H](O)CC[C@]4(C)[C@H]3C[C@H](O)[C@]12C	522.581
